Give measured IC50 for each item. Keep answers brief.
system.under.test: ROCK1 (Homo sapiens (Human), UniProt Q13464)
Sequence (Q13464 whole entry, species assumed): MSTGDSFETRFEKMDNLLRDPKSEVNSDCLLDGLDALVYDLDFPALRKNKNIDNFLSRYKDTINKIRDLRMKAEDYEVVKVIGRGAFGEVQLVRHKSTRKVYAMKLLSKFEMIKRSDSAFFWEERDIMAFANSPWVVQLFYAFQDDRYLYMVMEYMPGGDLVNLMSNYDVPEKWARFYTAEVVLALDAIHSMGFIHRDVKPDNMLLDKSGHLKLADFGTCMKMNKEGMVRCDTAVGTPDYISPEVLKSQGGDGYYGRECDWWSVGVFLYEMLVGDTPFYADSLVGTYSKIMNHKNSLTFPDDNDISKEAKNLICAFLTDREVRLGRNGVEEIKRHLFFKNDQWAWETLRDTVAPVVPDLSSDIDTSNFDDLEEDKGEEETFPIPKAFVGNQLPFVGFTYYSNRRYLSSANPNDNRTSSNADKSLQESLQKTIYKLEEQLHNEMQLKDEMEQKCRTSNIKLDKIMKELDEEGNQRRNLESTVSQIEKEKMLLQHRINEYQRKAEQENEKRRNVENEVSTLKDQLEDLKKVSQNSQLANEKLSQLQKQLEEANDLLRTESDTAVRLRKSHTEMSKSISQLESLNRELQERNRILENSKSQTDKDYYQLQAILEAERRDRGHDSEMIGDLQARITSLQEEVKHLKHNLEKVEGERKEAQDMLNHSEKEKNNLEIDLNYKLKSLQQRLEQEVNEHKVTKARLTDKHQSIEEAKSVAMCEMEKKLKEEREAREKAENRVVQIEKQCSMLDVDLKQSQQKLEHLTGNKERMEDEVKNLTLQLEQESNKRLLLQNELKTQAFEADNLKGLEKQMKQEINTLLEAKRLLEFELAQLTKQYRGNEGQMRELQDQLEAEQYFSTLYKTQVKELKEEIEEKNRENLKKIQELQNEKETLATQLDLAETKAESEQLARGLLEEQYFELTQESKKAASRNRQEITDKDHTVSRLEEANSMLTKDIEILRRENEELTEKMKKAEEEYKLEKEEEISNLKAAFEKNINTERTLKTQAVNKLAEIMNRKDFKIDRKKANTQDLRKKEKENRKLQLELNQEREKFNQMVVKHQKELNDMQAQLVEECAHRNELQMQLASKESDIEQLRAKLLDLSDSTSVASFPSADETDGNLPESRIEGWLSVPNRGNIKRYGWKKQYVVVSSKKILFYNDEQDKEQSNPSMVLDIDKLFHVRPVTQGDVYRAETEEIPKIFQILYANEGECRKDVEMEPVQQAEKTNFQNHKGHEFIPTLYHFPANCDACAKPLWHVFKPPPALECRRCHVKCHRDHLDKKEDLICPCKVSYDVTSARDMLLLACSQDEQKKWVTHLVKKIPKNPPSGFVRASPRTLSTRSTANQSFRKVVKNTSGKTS

The value of IC50 measured for the compound "CC(=O)C1CN(C(=O)c2cc3ccc(-c4nccc(Nc5ccc(-c6cn[nH]c6)cc5)n4)cc3n2C)C1" turned out to be > 10 µM

The value of IC50 measured for the compound CN(C(=O)c1cc2ccc(-c3nccc(Nc4ccc(-c5cn[nH]c5)cc4)n3)cc2[nH]1)C1CCOC1 (centres unmarked) turned out to be > 10 µM

The value of IC50 measured for the compound CN1CCC[C@H]1C(=O)N1Cc2ccc(-c3nccc(Nc4ccc(-c5cn[nH]c5)cc4)n3)cc2C1 [TDI01968A] turned out to be > 10 µM

The value of IC50 measured for the compound "O=C(C1CC(F)(F)C1)N1Cc2ccc(-c3ncc(F)c(Nc4ccc(-c5cn[nH]c5)cc4F)n3)cc2C1" turned out to be > 10 µM

The value of IC50 measured for the compound "CC1(C(=O)N2CCc3ccc(-c4nccc(Nc5ccc(-c6cn[nH]c6)cc5)n4)cc3C2)CC(F)(F)C1" turned out to be > 10 µM

The value of IC50 measured for the compound "O=C(Nc1ccnnc1)c1cc2cc(-c3nccc(Nc4ccc5[nH]ncc5c4)n3)ccc2[nH]1" turned out to be 1.28 µM

The value of IC50 measured for the compound "O=C(c1cc2ccc(-c3nccc(Nc4ccc(-c5cn[nH]c5)cc4)n3)cc2[nH]1)N1CC(C(F)(F)F)C1" turned out to be 1.97 µM

The value of IC50 measured for the compound "CC(=O)N1Cc2nc(-c3ccc4c(c3)CN(C(=O)C3CC(F)(F)C3)C4)nc(Nc3ccc(-c4cn[nH]c4)cc3)c2C1" turned out to be > 10 µM

The value of IC50 measured for the compound "C[C@H](CN)NC(=O)c1cc2ccc(-c3nccc(Nc4ccc(-c5cn[nH]c5)cc4)n3)cc2[nH]1" turned out to be 5.42 µM

The value of IC50 measured for the compound O=C(Nc1ccncc1I)c1cc2ccc(-c3nccc(Nc4ccc(-c5cn[nH]c5)cc4)n3)cc2[nH]1 [TDI01829C] turned out to be > 10 µM

The value of IC50 measured for the compound O=C(c1cc2ccc(-c3nccc(Nc4ccc(-c5cn[nH]c5)c(F)c4)n3)cc2[nH]1)N1CC(F)(F)C1 [TDI01842B] turned out to be 2.77 µM

The value of IC50 measured for the compound "CC1(F)CN(C(=O)c2cc3ccc(-c4nccc(Nc5ccc(-c6cn[nH]c6)cc5)n4)cc3[nH]2)C1" turned out to be 6.07 µM

The value of IC50 measured for the compound "O=C(C1CC(F)(F)C1)N1Cc2ccc(-c3ncnc(Nc4ccc(-c5cn[nH]c5)cc4)n3)cc2C1" turned out to be > 10 µM

The value of IC50 measured for the compound "O=C(Nc1ccncc1Cl)c1cc2ccc(-c3nccc(Nc4ccc5[nH]ncc5c4)n3)cc2s1" turned out to be > 10 µM

The value of IC50 measured for the compound "c1ccc2sc(-c3cc4ccc(-c5nccc(Nc6ccc7[nH]ncc7c6)n5)cc4[nH]3)nc2c1" turned out to be > 10 µM

The value of IC50 measured for the compound "COc1cc(Nc2ccnc(-c3ccc4cc(C(=O)N5CC(F)(F)C5)n(C)c4c3)n2)ccc1-c1cn[nH]c1" turned out to be > 10 µM

The value of IC50 measured for the compound CC(C)(C)OC(=O)N1Cc2ccc(-c3nccc(Nc4ccc(-c5cn[nH]c5)cc4)n3)cc2C1 [TDI01557B] turned out to be > 10 µM

The value of IC50 measured for the compound "Cn1c(C(=O)N2CC(F)(F)C2)cc2ccc(-c3nc(Nc4ccc(-c5cn[nH]c5)cc4)c4cccn4n3)cc21" turned out to be > 10 µM

The value of IC50 measured for the compound "CS(=O)(=O)C1CN(C(=O)c2cc3ccc(-c4nccc(Nc5ccc(-c6cn[nH]c6)cc5)n4)cc3[nH]2)C1" turned out to be > 10 µM

The value of IC50 measured for the compound O=C(C1CC(F)(F)C1)N1CCc2cc(-c3ncc(F)c(Nc4ccc(-c5cn[nH]c5)cc4)n3)ccc21 [TDI01618A] turned out to be > 10 µM

Each recorded value in this set is attributed to patent US11390609B2.
